The reader will find reported koff values listed item by item below.
assayed system: T1, cynomolgus monkey IL-33 expressed with a C-terminal hexahistidine tag (cynomolgus monkey)
T1 construct: also called MfIL-33-6His; Mf-IL-33-6His
T1 chain: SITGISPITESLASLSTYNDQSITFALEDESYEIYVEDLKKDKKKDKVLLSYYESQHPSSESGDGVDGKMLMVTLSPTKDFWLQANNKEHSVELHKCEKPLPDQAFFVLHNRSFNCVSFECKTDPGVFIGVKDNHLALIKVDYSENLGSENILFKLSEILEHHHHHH
assay details: SPR 37C pH7.4, mAb captured
Just the number please, in s⁻¹, no unit attached.

binder	koff / s⁻¹
H4H9666P (antibody, human IgG4, V domains shown, Human IgG4 Fc (H4H)) VH: QVQLVQSGAEVKKPGASVKVSCKASGYTFTSYGISWVRQAPGQGLEWMGWIRAYNGYTNYAQKFQGRVTMTTDTSTNTAYMELRTLNSDDTAVYYCARDRYSGSFHGNFDYWGQGTLVTVSS VL: DIQMTQSPSSVSASVGDRVTITCRASQGIFSWLAWYQQKPGKAPKVLIYAASNLESGVPSRFSGSGSGTDFTLTISSLQPEDFATYYCQQANSLPLTFGGGTKVEIK	0.0141
H4H9660P (antibody, human IgG4, V domains shown, Human IgG4 Fc (H4H)) VH: EVQLVESGGGLVQPGGSLRLSCAASGITLSSYGMSWVRQAPGKGLEWVASIFGSGGGPYYADSVKGRFTMSRDNSKNTLYLQMNSLRAEDTAVYYCAKDRYSGSYYGGFDYWGRGTLVTVSS VL: DIQMTQSPSSVSASVGDRVTITCRASQGITSWLAWYQQKPGKAPTLLIYAASSLQTGVPSRFSGSGSGTDFTLTISSLQPEHFATYYCQQANSFPPTFGGGTKVEIK	0.00444

Now for the binder whose koff we want.
Qu. Quick one: koff for H4H9663P (antibody, human IgG4, V domains shown, Human IgG4 Fc (H4H)) VH: QVQLVQSGAEVKKPGASVKVSCKASGYTFTGHYMYWMRQAPGQGLEWMGWINPNSGGTNYAQKFQDRVTMTRDTSISTAYMELSRLRSDDTAVYYCARGRYGSSWYGGFEYWGQGTLVTVSS VL: DIQMTQSPSSVSASVGDRVTITCRASQGITSWLAWYQQKPGKAPNLLIYAAASLQSGVPSRFSGSGSGTDFTLTISSLQPEDFTTYYCQQAYSLPLTFGGGTKVEIK ?
Ans. 0.00361
